Target system: full-length human PRMT1 isoform 1 (GST-tagged) (Homo sapiens, UniProt Q99873)
Construct: GST-tagged PRMT1 was eluted with 50 mM Tris, 2 mM glutathione, pH 7.8, dialysed in buffer A and concentrated
Sequence (Q99873 with tags, fused parts or gaps): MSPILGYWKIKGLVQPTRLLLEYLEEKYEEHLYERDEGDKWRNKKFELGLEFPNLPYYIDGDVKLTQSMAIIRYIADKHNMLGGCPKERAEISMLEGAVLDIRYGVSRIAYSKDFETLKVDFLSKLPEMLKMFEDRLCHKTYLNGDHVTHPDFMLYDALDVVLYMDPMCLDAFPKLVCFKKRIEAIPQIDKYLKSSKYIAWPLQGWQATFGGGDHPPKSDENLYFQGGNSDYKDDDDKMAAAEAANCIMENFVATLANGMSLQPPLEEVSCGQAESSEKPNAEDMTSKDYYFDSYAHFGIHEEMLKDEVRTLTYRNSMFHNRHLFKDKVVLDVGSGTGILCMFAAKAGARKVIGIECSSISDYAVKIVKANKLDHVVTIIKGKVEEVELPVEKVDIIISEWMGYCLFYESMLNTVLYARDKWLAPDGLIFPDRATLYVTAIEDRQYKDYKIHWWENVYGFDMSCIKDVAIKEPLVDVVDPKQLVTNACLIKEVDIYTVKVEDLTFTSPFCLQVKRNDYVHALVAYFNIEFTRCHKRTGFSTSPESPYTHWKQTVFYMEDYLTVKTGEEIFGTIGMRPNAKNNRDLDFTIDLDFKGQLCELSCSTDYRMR
Experiment: PRMT1 biochemical assay (3H-SAM Flashplate, histone H4 36-50 peptide)
Condition notes: 0.5 nM PRMT1, 30 min preincubation, 20 nM peptide
From the text: S-adenosylmethionine (SAM), S-adenosylhomocysteine (SAH), bicine, Tween20, dimethylsulfoxide (DMSO), bovine skin gelatin (BSG), and Tris(2-carboxyethyl)phosphine hydrochloride solution (TCEP) were purchased from Sigma-Aldrich at the highest level of purity possible. ^3H-SAM was purchase from American Radiolabeled Chemicals with a specific activity of 80 Ci/mmol. 384-well streptavidin Flashplates were purchased from PerkinElmer. […]
Recorded endpoint: IC50 (µM)

Worked set:
| Compound | IC50, µM |
| --- | --- |
| CNCCN(C)Cc1nncn1[C@H]1CC[C@@]2(CC1)CC(C)(C)CO2 [compound 68] | 4.33 |
| CNCCNCc1c[nH]nc1[C@H]1CC[C@@]2(CC1)CC(C)(C)CO2 [compound 28] | 0.0132 |
| CC[C@]12CC[C@](CC)(C[C@@H](c3n[nH]cc3CN(C)CCNC)C1)O2 [compound 38] | 0.111 |
| CNCCN(C)Cc1ncsc1[C@H]1CC[C@@]2(CC1)CC(C)(C)CO2 [compound 83] | 0.0148 |
| CNCCN(C)Cc1c([C@H]2CC[C@]3(CC2)CC(C)(C)CO3)nnn1C [compound 54] | 9.31 |
| CNCCN(C)Cc1c[nH]nc1C1CCC2(CC1)CC(C)(C)OC2=O (stereo not shown) [compound 125] | 0.0107 |
| CNCCN(C)Cc1cncn1[C@H]1CC[C@]2(CC1)CC(C)(C)CO2 [compound 98] | 4.36 |

[I] CNCCN(C)Cc1c[nH]nc1[C@H]1CC[C@]2(CCCOC2)CC1 [compound 4]
[II] CNCCN(C)Cc1nc(C)sc1[C@H]1CC[C@]2(CC1)CC(C)(C)CO2 [compound 99]
Would you let me know which has the greater IC50 value, I or II ? Let me know the label of the one you choose.
II
